- Target entity: Histone deacetylase 4 (Homo sapiens)
- Sequence (P56524 whole entry): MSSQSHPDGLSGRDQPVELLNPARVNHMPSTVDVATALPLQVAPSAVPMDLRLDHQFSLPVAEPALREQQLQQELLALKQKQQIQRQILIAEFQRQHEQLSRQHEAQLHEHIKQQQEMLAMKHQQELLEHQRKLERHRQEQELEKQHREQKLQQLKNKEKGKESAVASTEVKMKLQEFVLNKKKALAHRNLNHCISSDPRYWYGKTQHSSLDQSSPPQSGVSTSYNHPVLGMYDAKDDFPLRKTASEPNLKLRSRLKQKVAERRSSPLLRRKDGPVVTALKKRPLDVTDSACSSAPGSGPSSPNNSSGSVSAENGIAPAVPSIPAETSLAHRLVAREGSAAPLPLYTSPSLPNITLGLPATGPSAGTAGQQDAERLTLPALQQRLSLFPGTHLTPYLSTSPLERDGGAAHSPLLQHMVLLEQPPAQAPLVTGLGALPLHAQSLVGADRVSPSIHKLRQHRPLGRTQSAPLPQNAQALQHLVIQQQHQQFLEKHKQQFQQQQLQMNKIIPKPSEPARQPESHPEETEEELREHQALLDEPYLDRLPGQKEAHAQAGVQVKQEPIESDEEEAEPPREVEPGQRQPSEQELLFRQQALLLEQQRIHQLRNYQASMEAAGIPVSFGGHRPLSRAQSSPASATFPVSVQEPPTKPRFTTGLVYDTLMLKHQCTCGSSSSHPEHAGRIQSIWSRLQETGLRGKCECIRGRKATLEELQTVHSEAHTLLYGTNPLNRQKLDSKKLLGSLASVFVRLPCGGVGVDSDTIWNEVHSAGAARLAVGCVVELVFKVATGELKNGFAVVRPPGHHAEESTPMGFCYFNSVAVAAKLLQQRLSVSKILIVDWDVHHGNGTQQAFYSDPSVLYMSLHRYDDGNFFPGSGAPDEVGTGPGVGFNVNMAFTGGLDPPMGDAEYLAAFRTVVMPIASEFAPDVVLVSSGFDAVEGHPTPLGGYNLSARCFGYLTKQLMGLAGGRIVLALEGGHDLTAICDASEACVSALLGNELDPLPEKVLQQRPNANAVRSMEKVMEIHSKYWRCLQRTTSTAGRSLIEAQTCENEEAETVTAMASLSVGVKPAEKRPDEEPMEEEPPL
- Assay comment: Inhibition of human full length C-terminal Flag tagged HDAC4 expressed in HEK293T cells using H3K9-myristoyl peptide as substrate by HPLC method
pIC50: −log10 of the molar value.
Readout label: pIC50

## Input pIC50 for `CCCCCCCCCCCCCCCCNNC(=O)c1cccs1` ?
## Output < 5.00

---

- Target entity: Histone deacetylase 2 (Homo sapiens)
- Sequence (Q92769 whole entry): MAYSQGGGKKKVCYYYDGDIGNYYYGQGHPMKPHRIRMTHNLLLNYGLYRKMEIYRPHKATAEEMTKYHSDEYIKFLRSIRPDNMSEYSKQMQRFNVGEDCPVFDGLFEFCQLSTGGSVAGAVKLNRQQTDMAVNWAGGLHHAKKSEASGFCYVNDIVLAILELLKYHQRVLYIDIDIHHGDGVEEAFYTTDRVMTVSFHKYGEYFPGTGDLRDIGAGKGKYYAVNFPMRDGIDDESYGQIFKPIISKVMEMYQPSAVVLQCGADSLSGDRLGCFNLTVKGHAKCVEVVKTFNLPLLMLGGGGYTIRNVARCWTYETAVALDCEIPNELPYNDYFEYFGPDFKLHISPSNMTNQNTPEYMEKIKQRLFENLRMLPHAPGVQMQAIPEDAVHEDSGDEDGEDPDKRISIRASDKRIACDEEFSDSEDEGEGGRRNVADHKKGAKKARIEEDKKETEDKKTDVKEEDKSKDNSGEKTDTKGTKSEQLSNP
- Assay comment: Inhibition of human HDAC2 expressed in Sf9 cells using acetyl-lysine tripeptide as substrate preincubated for 10 mins followed by substrate addition and shaken for 5 secs and measured over 30 mins
Readout label: IC50 (nM)
Report as a plain number; the unit nM is understood.

## Input IC50 lookup needed for `Nc1ccc(-c2cccs2)cc1NC(=O)c1ccc2nc(N3CCNCC3)ccc2c1` , thanks.
## Output 26

---

- Target entity: Protein deacetylase HDAC6 (Homo sapiens, UniProt Q9UBN7)
- Sequence (Q9UBN7 whole entry): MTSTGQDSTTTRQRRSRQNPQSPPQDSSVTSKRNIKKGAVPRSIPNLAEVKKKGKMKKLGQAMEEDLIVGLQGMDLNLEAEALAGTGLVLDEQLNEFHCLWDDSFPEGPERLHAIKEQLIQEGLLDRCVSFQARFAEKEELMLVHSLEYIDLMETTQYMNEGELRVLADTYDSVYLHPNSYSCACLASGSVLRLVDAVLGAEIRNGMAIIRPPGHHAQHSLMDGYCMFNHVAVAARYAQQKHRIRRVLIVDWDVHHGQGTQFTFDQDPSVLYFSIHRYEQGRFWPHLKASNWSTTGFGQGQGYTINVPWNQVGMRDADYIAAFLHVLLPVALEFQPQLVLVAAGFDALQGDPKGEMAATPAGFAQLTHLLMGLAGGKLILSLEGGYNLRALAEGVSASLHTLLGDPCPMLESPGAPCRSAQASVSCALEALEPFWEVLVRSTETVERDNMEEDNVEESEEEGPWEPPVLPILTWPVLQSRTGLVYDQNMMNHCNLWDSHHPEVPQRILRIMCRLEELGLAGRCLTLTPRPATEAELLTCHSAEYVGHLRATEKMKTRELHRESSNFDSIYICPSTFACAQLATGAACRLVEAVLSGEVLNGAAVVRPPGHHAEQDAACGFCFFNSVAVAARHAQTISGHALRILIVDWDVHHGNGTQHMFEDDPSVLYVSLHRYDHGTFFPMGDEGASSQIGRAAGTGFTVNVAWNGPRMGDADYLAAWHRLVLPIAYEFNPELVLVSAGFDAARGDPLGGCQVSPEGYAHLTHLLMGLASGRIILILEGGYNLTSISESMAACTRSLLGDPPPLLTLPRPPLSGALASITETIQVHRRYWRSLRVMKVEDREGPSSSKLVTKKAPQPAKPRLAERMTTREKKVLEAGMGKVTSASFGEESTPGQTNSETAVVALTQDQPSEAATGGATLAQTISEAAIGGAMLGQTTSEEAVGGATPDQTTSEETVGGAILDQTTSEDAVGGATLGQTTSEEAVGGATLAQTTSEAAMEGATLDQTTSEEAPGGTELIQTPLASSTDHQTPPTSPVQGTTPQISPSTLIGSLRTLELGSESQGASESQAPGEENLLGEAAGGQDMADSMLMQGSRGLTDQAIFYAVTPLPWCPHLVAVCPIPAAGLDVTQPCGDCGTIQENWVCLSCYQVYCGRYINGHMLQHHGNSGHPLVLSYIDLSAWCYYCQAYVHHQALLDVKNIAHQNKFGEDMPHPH
- Assay comment: Inhibition of HDAC6 (unknown origin) using acetyl-lysine tripeptide substrate as substrate preincubated for 24 hrs followed substrate addition and shaken for 5 secs and measured over 30 mins
Readout label: pIC50
Please keep in mind that pIC50 is minus log10 of the molar concentration; only the number is needed.

## Input Which measured pIC50 value corresponds to `O=C(NO)c1cnc(C2(c3ccccc3)CCC(F)(F)CC2)nc1` ?
## Output 8.52

---

- Target entity: Histone deacetylase 9 (Homo sapiens, UniProt Q9UKV0)
- Sequence (Q9UKV0 whole entry, the tested form may be a part): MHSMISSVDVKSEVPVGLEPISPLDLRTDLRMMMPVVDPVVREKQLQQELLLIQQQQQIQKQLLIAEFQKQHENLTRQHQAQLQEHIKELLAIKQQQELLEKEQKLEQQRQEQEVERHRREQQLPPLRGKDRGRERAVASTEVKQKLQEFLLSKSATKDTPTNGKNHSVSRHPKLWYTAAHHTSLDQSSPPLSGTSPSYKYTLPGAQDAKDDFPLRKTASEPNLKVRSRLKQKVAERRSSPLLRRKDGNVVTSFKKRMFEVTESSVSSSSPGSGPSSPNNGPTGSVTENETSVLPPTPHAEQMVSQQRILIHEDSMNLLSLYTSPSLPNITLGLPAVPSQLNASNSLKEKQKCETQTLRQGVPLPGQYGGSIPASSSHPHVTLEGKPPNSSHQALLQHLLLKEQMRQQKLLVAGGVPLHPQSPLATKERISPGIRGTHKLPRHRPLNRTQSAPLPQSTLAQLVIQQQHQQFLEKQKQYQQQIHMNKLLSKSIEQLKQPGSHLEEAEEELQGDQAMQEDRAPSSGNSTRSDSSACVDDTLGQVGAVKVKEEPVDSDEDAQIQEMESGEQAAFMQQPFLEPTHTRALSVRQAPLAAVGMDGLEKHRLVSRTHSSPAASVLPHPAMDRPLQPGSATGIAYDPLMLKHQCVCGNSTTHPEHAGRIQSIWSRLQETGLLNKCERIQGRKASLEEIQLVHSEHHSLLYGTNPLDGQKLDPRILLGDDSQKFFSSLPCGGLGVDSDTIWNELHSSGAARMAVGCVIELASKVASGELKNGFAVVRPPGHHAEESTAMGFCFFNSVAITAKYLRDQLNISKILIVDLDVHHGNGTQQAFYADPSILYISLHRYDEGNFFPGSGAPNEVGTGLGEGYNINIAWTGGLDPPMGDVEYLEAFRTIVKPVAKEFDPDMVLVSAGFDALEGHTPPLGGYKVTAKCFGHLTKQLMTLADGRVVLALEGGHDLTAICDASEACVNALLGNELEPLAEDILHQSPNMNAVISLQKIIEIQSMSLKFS
- Assay comment: Inhibition of C-terminal His-tagged human HDAC9 (604 to 1066 residues) expressed in baculovirus infected sf9 cells using carboxyfluorescein (FAM)-labeled acetylated peptide substrate by microfluidic capillary electrophoresis
Readout label: IC50

## Input Given `CC(=O)Nc1ccc(C(=O)Nc2ccc(F)cc2N)cc1` , state its recorded IC50.
## Output > 30 µM

---

- Target entity: Histone deacetylase 7 (Homo sapiens, UniProt Q8WUI4)
- Sequence (Q8WUI4 whole entry): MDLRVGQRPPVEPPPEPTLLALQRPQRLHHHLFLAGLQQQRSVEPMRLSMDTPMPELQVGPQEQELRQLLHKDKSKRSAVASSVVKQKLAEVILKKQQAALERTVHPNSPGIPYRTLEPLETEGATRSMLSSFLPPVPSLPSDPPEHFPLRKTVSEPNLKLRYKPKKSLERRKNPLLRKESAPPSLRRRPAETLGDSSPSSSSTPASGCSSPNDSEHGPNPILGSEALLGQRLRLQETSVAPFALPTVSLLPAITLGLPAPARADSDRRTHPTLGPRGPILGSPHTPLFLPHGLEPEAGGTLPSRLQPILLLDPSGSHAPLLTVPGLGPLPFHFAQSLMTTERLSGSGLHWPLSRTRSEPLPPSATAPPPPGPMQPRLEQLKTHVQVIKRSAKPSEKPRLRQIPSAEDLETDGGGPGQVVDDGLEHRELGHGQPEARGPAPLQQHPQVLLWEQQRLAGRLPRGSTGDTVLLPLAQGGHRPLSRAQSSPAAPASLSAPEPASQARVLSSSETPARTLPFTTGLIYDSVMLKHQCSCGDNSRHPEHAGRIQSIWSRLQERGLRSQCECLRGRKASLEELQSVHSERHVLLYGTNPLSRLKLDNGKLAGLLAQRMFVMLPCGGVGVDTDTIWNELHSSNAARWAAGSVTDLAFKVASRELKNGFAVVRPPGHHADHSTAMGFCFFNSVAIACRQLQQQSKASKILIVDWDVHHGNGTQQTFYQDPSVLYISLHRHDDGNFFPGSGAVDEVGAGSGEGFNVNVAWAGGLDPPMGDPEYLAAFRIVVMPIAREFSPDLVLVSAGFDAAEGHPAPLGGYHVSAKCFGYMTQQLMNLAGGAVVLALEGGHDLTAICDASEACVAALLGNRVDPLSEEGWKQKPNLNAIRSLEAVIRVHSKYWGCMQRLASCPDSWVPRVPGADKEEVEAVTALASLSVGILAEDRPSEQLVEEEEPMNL
- Assay comment: Inhibition of HDAC7 (unknown origin)
pIC50: −log10 of the molar value.
Readout label: pIC50

## Input Provide value of pIC50 for this record tested with Histone deacetylase 7 (Homo sapiens, UniProt Q8WUI4): `CCCCCCCCCCCCCCCCNNC(=O)c1cccs1`
## Output < 5.00

---

- Target entity: Histone deacetylase 9 (Homo sapiens)
- Assay comment: Inhibition of HDAC9 (unknown origin) using HDAC class IIa substrate (trifluoroacetyl-lysine-AMC) as substrate by fluorescent method
Readout label: IC50

## Input Sample `Cn1cc(-c2ccc(S(=O)(=O)n3ccc(/C=C/C(=O)Nc4ccccc4N)c3)cc2)cn1` — what was its IC50?
## Output > 10 µM

---

- Target entity: Histone deacetylase 9 (Homo sapiens)
- Assay comment: Inhibition of human HDAC9 expressed in baculovirus infected sf9 cells using (Boc-Lys(trifluoroacetyl)-AMC) as substrate by fluorescence-based assay
Readout label: IC50 (nM)
// note: answer is a bare numeric in nM

[[record]]
compound = "CN(C)Cc1c(C(=O)NCCOc2ccc(C(=O)NO)cc2)oc2ccccc12 [ABEXINOSTAT]"
measurement = 168


Let's switch to this compound now.
## Input // IC50 lookup, key: Cn1cc(CNCC2CCN(c3ncc(C(=O)NO)cn3)CC2)c2ccccc21 [QUISINOSTAT]
## Output 32

---

- Target entity: Histone deacetylase 3/Nuclear receptor corepressor 2 (HDAC3/NCoR2) (Homo sapiens)
- Assay comment: Inhibition of His-tagged GST-fused human HDAC3/NcoR2 expressed in sf9 cells using acetyl-lysine tripeptide as substrate preincubated for 10 mins followed by substrate addition and shaken for 5 secs and measured over 30 mins
Readout label: pIC50
Note: pIC50 values are expressed as the negative base-10 logarithm of concentration in M.

## Input GET /values?readout=pIC50&item= `Nc1ccc(-c2cccs2)cc1NC(=O)c1ccc2nc(N3CCNCC3)ccc2c1`
## Output 6.00

Origin of the recorded values: ChEMBL document CHEMBL4765362
